Molecular target: human GLP-1 receptor (Homo sapiens)
Construct: HA (N); expressed in transfected cells
Sequence (P43220 24-463): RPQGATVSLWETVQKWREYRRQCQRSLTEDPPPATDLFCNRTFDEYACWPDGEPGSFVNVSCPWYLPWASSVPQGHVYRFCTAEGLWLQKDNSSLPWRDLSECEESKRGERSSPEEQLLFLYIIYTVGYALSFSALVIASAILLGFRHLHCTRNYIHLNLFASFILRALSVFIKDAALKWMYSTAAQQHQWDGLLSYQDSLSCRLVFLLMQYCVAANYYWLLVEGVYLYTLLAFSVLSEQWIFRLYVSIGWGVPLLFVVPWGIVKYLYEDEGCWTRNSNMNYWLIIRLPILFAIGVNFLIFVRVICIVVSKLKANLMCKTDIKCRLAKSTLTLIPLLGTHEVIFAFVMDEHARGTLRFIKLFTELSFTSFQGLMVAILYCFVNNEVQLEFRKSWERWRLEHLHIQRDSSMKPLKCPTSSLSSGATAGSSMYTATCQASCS
Assay: GLP-1 receptor-mediated agonist activity: cAMP level in hGLP-1R/HEK293 cell line (HTRF)
Type: cell-based
Details: cAMP levels in hGLP-1R/HEK293 cell line; Table 1; read-out: determined EC50
pEC50: −log10 of the molar value.
readout name: pEC50

1. N#Cc1ccc(COc2cccc(N3C=NN(Cc4nc5c(OC6CC6)cc(C(=O)O)cc5n4C[C@@H]4CCO4)CC3)n2)c(F)c1 = 11.66
2. CCOc1cc(C(=O)O)cc2c1nc(CN1CCC(c3cccnc3OCc3ccc(C#N)cc3F)CC1)n2C[C@@H]1CCO1 = 10.33
3. COc1cc(C(=O)O)cc2c1nc(CN1CCC(c3ccccc3OCc3ccc(C#N)c4c3OCC4)CC1)n2C[C@@H]1CCO1 = 10.37
4. CC1(c2ccc(Cl)cn2)Oc2cccc(C3CCN(Cc4nc5c(OC(F)F)cc(C(=O)O)cc5n4C[C@@H]4CCO4)CC3)c2O1 (stereo partly shown) = 10.66
5. N#Cc1ccc(COc2cccc(C3CCN(Cc4nc5c(OCC6CC6)cc(C(=O)O)cc5n4C[C@@H]4CCO4)CC3)n2)c(F)c1 = 10.92

1. COc1cc(C#N)ccc1COc1ccccc1C1CCN(Cc2nc3c(OC)cc(C(=O)O)cc3n2C[C@@H]2CCO2)CC1
2. [2H]C([2H])([2H])C([2H])([2H])Oc1cc(C(=O)O)cc2c1nc(CN1CCN(c3cccc4c3O[C@@](C)(c3ccc(C(F)(F)F)cc3F)O4)C=N1)n2C[C@@H]1CCO1
3. COc1cc(C#N)ccc1COc1cccc(C2CCN(Cc3nc4c(OC)cc(C(=O)O)cc4n3C[C@@H]3CCO3)CC2)c1
4. CCOc1cc(C(=O)O)cc2c1nc(CN1CCC(c3cccc(OCc4ccc(C(F)(F)F)cc4OC)n3)CC1)n2C[C@@H]1CCO1
5. COc1cc(C(=O)O)cc2c1nc(CN1CCC(c3ccccc3OCc3ccc(C#N)cc3F)CC1)n2C[C@@H]1CCO1
Query: Arrange these molecules by their pEC50, starting with the largest number. Note for the reader: the ranking is given by listing the labels in the order requested.
Response: 4, 2, 1, 3, 5
